Reference source: patent US20250213735A1

- measured on: hNPY1R (Homo sapiens (Human), UniProt P25929)
- Sequence (P25929 whole entry): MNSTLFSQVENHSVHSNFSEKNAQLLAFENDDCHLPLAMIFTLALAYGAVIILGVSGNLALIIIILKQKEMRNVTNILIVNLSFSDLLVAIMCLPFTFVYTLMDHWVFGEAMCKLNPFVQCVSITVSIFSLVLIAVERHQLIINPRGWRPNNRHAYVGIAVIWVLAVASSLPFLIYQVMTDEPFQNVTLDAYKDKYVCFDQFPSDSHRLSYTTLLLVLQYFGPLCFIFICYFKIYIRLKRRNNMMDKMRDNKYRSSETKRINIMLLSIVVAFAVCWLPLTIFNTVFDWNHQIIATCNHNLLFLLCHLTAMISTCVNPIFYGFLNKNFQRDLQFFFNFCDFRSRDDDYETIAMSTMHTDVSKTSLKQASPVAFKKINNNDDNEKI
- assay method text: NPY1R binding assay (SK-N-MC membrane, [125I]-Peptide YY competition)
- reported conditions: crude SK-N-MC membranes endogenously expressing NPY1R; [125I]-Peptide YY (human) 0.05 nM; 120 min at room temperature; read-out: hNPY1R binding Ki
pKi: −log10 of the molar value.
For each record, write down the corresponding pKi.

Parameters: items (list). Returns: pKi for each item.
1. CCC(=O)NCCNC(=O)/N=C(/N)NCCC[C@@H](NC(=O)[C@H](c1ccc(OCCCNC(=O)CN2CCN(CC(=O)O)CCN(CC(=O)O)CCN(CC(=O)O)CC2)cc1)N1Cc2ccccc2C1)C(=O)NCc1ccc(O)cc1
2. CC1(C)C2CN([C@H](C(=O)N[C@H](CCCNC(=N)N)C(=O)NCc3ccc(O)cc3)c3ccccc3)CC21 (some centres unmarked) [88A]
3. CCC(=O)NCCNC(=O)/N=C(/N)NCCC[C@@H](NC(=O)[C@H](c1ccccc1)N1Cc2cccc(NCCCNC(=O)CCCCCNC(=O)CN3CCN(CC(=O)O)CCN(CC(=O)O)CCN(CC(=O)O)CC3)c2C1)C(=O)NCc1c(F)cc(O)cc1F
4. CCNC(=O)/N=C(/N)NCCC[C@@H](NC(=O)C(c1ccccc1)N1Cc2ccccc2C1)C(=O)NCc1c(F)cc(O)cc1F (some centres unmarked)
5. CC1(C)CCN(C(C(=O)N[C@H](CCCNC(=N)N)C(=O)NCc2ccc(O)cc2)c2ccccc2)CC1 (some centres unmarked)
6. N=C(N)NCCC[C@@H](NC(=O)C(c1ccccc1)N1CCN(c2ccccc2)CC1)C(=O)NCc1ccc(O)cc1 (some centres unmarked)
7. CCC(=O)NCCNC(=O)/N=C(/N)NCCC[C@@H](NC(=O)[C@H](c1ccc(OCCCNC(=O)CCCCCNC(=O)CN2CCN(CC(=O)O)CCN(CC(=O)O)CCN(CC(=O)O)CC2)cc1)N1Cc2ccccc2C1)C(=O)NCc1c(F)cc(O)cc1F
8. CCC(=O)NCCNC(=O)/N=C(/N)NCCC[C@@H](NC(=O)[C@H](c1cccc(NCCCNC(=O)CCOCCNC(=O)CN2CCN(CC(=O)O)CCN(CC(=O)O)CCN(CC(=O)O)CC2)c1)N1Cc2ccccc2C1)C(=O)NCc1ccc(O)cc1

Result:
1: > 8.00; 2: 6.00 to 7.00; 3: > 8.00; 4: > 8.00; 5: 6.00 to 7.00; 6: < 6.00; 7: > 8.00; 8: > 8.00

Parameters: items (list). Returns: pKi for each item.
1. CCCC1CCN([C@@H](C(=O)N[C@H](CCCNC(=N)N)C(=O)NCc2ccc(O)cc2)c2ccccc2)CC1 [78A]
2. CCNC(=O)/N=C(/N)NCCC[C@@H](NC(=O)[C@H](c1cccc(NCCCNC(=O)CCOCCNC(=O)CN2CCN(CC(=O)O)CCN(CC(=O)O)CCN(CC(=O)O)CC2)c1)N1Cc2ccccc2C1)C(=O)NCc1c(F)cc(O)cc1F
3. CCC(=O)NCCNC(=O)/N=C(/N)NCCC[C@@H](NC(=O)[C@H](c1ccc(OCCCNC(=O)CCC(=O)NCCNC(=O)CN2CCN(CC(=O)O)CCN(CC(=O)O)CCN(CC(=O)O)CC2)cc1)N1Cc2ccccc2C1)C(=O)NCc1c(F)cc(O)cc1F

Result:
1: < 6.00; 2: > 8.00; 3: > 8.00

Parameters: items (list). Returns: pKi for each item.
1. CCC(=O)NCCNC(=O)/N=C(/N)NCCC[C@@H](NC(=O)[C@H](c1ccc(OCCCNC(=O)CCNC(=O)CN2CCN(CC(=O)O)CCN(CC(=O)O)CCN(CC(=O)O)CC2)cc1)N1Cc2ccccc2C1)C(=O)NCc1c(F)cc(O)cc1F
2. N=C(N)NCCC[C@@H](NC(=O)[C@H](c1ccccc1)N1Cc2ccccc2C1)C(=O)NCc1ccc(O)cc1

Result:
> 8.00
7.00 to 8.00

Parameters: items (list). Returns: pKi for each item.
1. CCC(=O)NCCNC(=O)/N=C(/N)NCCC[C@@H](NC(=O)[C@H](c1cccc(NCCCN)c1)N1Cc2ccccc2C1)C(=O)NCc1ccc(O)cc1
2. CCC(=O)NCCNC(=O)/N=C(/N)NCCC[C@@H](NC(=O)[C@H](c1ccc(OCCCNc2c(NCCNC(=O)CN3CCN(CC(=O)O)CCN(CC(=O)O)CCN(CC(=O)O)CC3)c(=O)c2=O)cc1)N1Cc2ccccc2C1)C(=O)NCc1ccc(O)cc1
3. CCC(=O)NCCNC(=O)/N=C(/N)NCCC[C@@H](NC(=O)[C@@H](c1ccccc1)N1Cc2ccccc2C1)C(=O)NCc1c(F)cc(O)cc1F [61B]
4. CCCC1CCN([C@H](C(=O)N[C@H](CCCNC(=N)N)C(=O)NCc2ccc(O)cc2)c2ccccc2)CC1

Result:
1: > 8.00; 2: > 8.00; 3: > 8.00; 4: 6.00 to 7.00

* * *

- measured on: hNPY1R (Homo sapiens (Human), UniProt P25929)
- assay method text: NPY1R binding assay (SK-N-MC membrane, [125I]-Peptide YY competition)
- reported conditions: crude SK-N-MC membranes endogenously expressing NPY1R; [125I]-Peptide YY (human) 0.05 nM; 120 min at room temperature; read-out: hNPY1R binding Ki
pKi: −log10 of the molar value.
property measured: pKi

Solved entries (count: 5):
CCNC(=O)/N=C(/N)NCCC[C@@H](NC(=O)[C@H](c1ccccc1)N1Cc2cccc(NCCCN)c2C1)C(=O)NCc1c(F)cc(O)cc1F [compound 65] | > 8.00
CCC(=O)NCCNC(=O)/N=C(/N)NCCC[C@@H](NC(=O)[C@H](c1cccc(OCCCNC(=O)CCCCCNC(=O)CN2CCN(CC(=O)O)CCN(CC(=O)O)CCN(CC(=O)O)CC2)c1)N1Cc2ccccc2C1)C(=O)NCc1ccc(O)cc1 [compound 12] | > 8.00
N=C(N)NCCC[C@@H](NC(=O)C(c1ccccc1)N1CCC2(CC1)CC2)C(=O)NCc1ccc(O)cc1 (stereo partly shown) [compound 85] | 7.00 to 8.00
CCC(=O)NCCNC(=O)/N=C(/N)NCCC[C@@H](NC(=O)[C@H](c1ccccc1)N1Cc2ccccc2C1)C(=O)NCc1c(F)cc(O)cc1F [61A] | > 8.00
CCC(=O)NCCNC(=O)/N=C(/N)NCCC[C@@H](NC(=O)[C@H](c1cccc(NCCCNC(=O)[C@@H](CO)NC(=O)CCNC(=O)CN2CCN(CC(=O)O)CCN(CC(=O)O)CCN(CC(=O)O)CC2)c1)N1Cc2ccccc2C1)C(=O)NCc1ccc(O)cc1 [compound 30] | > 8.00

Parameters: items (list). Returns: pKi for each item.
1. CCC(=O)NCCNC(=O)/N=C(/N)NCCC[C@@H](NC(=O)[C@H](c1cccc(NCCCNC(=O)C[C@H](O)C[C@H](O)CCNC(=O)CN2CCN(CC(=O)O)CCN(CC(=O)O)CCN(CC(=O)O)CC2)c1)N1Cc2ccccc2C1)C(=O)NCc1ccc(O)cc1 [compound 29]
2. CCC(=O)NCCNC(=O)/N=C(/N)NCCC[C@@H](NC(=O)C(c1ccccc1)N1Cc2ccccc2C1)C(=O)NCc1ccc(O)cc1 (stereo partly shown) [compound 60]

Result:
["> 8.00", "> 8.00"]

* * *

- measured on: hNPY1R (Homo sapiens (Human), UniProt P25929)
- assay method text: NPY1R binding assay (SK-N-MC membrane, [125I]-Peptide YY competition);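 note: bound radioligand separated by filtration over GF/C filter plates and counted, Ki obtained by non-linear regression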
- reported conditions: crude SK-N-MC membranes endogenously expressing NPY1R; [125I]-Peptide YY (human) 0.05 nM; 120 min at room temperature; read-out: hNPY1R binding Ki
Numbered stars: 1 amine (or outer) side, 2 acyl side, 3 side chain; on linkers, the order of the positions; unused ones are H or OH. Square brackets hold non-standard residues; d marks the D form. Peptide text beside a SMILES is read from it. * marks the point of attachment. dArg(Nω-CONH(CH2)2NHCOEt) = CCC(=O)NCCNC(=O)/N=C(/N)NCCC[C@@H](N)C(=O)O; DOTA = O=C(O)CN1CCN(CC(=O)O)CCN(CC(=O)*)CCN(CC(=O)O)CC1; X2 = O=C([C@H](c1cccc(NCCCN[*:1])c1)N1Cc2ccccc2C1)[*:2]; NH(4-OH-benzyl) = Oc1ccc(CN*)cc1; Sar = CNCC(=O)O
For each record, write down the corresponding Ki.

N=C(N)NCCC[C@@H](NC(=O)C(c1ccccc1)N1CCC(C2CCCCC2)CC1)C(=O)NCc1ccc(O)cc1 (some centres unmarked) | > 1000 nM

Parameters: items (list). Returns: Ki for each item.
1. CCC(=O)NCCNC(=O)/N=C(/N)NCCC[C@@H](NC(=O)[C@H](c1ccc(OCCCNC(=O)CONC(=O)CCNC(=O)CN2CCN(CC(=O)O)CCN(CC(=O)O)CCN(CC(=O)O)CC2)cc1)N1Cc2ccccc2C1)C(=O)NCc1c(F)cc(O)cc1F
2. CCC(=O)NCCNC(=O)/N=C(/N)NCCC[C@@H](NC(=O)[C@H](c1ccc(OCCCNC(=O)[C@@H](CO)NC(=O)CCNC(=O)CN2CCN(CC(=O)O)CCN(CC(=O)O)CCN(CC(=O)O)CC2)cc1)N1Cc2ccccc2C1)C(=O)NCc1c(F)cc(O)cc1F
3. N=C(N)NCCC[C@@H](NC(=O)[C@H](c1ccccc1)N1Cc2ccccc2C1)C(=O)NCc1c(F)cc(O)cc1F
4. CCC(=O)NCCNC(=O)/N=C(/N)NCCC[C@@H](NC(=O)[C@H](c1ccc(OCCCNc2c(NCCCCCCNC(=O)CN3CCN(CC(=O)O)CCN(CC(=O)O)CCN(CC(=O)O)CC3)c(=O)c2=O)cc1)N1Cc2ccccc2C1)C(=O)NCc1c(F)cc(O)cc1F
5. CCC(=O)NCCNC(=O)/N=C(/N)NCCC[C@@H](NC(=O)[C@H](c1ccc(OCCCN2CCN(C3CCN(C(=O)CCCCCNC(=O)CN4CCN(CC(=O)O)CCN(CC(=O)O)CCN(CC(=O)O)CC4)CC3)CC2)cc1)N1Cc2ccccc2C1)C(=O)NCc1c(F)cc(O)cc1F
6. CCC(=O)NCCNC(=O)/N=C(/N)NCCC[C@@H](NC(=O)[C@H](c1cccc(NCCCNC(=O)CCCCCNC(=O)NCCONC(=O)CN2CCN(CC(=O)O)CCN(CC(=O)O)CCN(CC(=O)O)CC2)c1)N1Cc2ccccc2C1)C(=O)NCc1ccc(O)cc1
7. CCC(=O)NCCNC(=O)/N=C(/N)NCCC[C@@H](NC(=O)[C@H](c1ccc(OCCCNC(=O)C[C@H]2NC(=O)[C@@H](CCNC(=O)CN3CCN(CC(=O)O)CCN(CC(=O)O)CCN(CC(=O)O)CC3)NC2=O)cc1)N1Cc2ccccc2C1)C(=O)NCc1c(F)cc(O)cc1F
8. CCC(=O)NCCNC(=O)/N=C(/N)NCCC[C@@H](NC(=O)[C@@H](c1ccc(OCCCNC(=O)CCCCCNC(=O)CN2CCN(CC(=O)O)CCN(CC(=O)O)CCN(CC(=O)O)CC2)cc1)N1Cc2ccccc2C1)C(=O)NCc1ccc(O)cc1

Result:
1: < 10 nM; 2: < 10 nM; 3: < 10 nM; 4: < 10 nM; 5: < 10 nM; 6: < 10 nM; 7: < 10 nM; 8: 100 to 1000 nM

Parameters: items (list). Returns: Ki for each item.
1. CCC(=O)NCCNC(=O)/N=C(/N)NCCC[C@@H](NC(=O)[C@H](c1cccc(NC(=O)CCCNC(=O)CCCCCNC(=O)CN2CCN(CC(=O)O)CCN(CC(=O)O)CCN(CC(=O)O)CC2)c1)N1Cc2ccccc2C1)C(=O)NCc1ccc(O)cc1
2. CCC(=O)NCCNC(=O)/N=C(/N)NCCC[C@@H](NC(=O)[C@H](c1ccccc1)N1Cc2cccc(NC(=O)CCCNC(=O)CCCCCNC(=O)CN3CCN(CC(=O)O)CCN(CC(=O)O)CCN(CC(=O)O)CC3)c2C1)C(=O)NCc1c(F)cc(O)cc1F
3. CCC(=O)NCCNC(=O)/N=C(/N)NCCC[C@@H](NC(=O)[C@H](c1ccc(OCCCN)cc1)N1Cc2ccccc2C1)C(=O)NCc1ccc(O)cc1 [64A]
4. N=C(N)NCCC[C@@H](NC(=O)[C@@H](c1ccccc1)N1Cc2ccccc2C1=O)C(=O)NCc1ccc(O)cc1 [71B]
5. CCC(=O)NCCNC(=O)/N=C(/N)NCCC[C@@H](NC(=O)C(c1ccc(OCCCN)cc1)N1Cc2ccccc2C1)C(=O)NCc1c(F)cc(O)cc1F (stereo in doubt)
6. CCC(=O)NCCNC(=O)/N=C(/N)NCCC[C@@H](NC(=O)[C@H](c1cccc(NCCCNC(=O)CN(C)C(=O)CN(C)C(=O)CN(C)C(=O)CN2CCN(CC(=O)O)CCN(CC(=O)O)CCN(CC(=O)O)CC2)c1)N1Cc2ccccc2C1)C(=O)NCc1ccc(O)cc1 [compound 21] ({DOTA}-[Sar][Sar][Sar][X2][dArg(Nω-CONH(CH2)2NHCOEt)]-{NH(4-OH-benzyl)})
7. N=C(N)NCCC[C@@H](NC(=O)C(c1ccccc1)N1CCC(C(F)(F)F)CC1)C(=O)NCc1ccc(O)cc1 (some centres unmarked)
8. CCC(=O)NCCNC(=O)/N=C(/N)NCCC[C@@H](NC(=O)[C@H](c1ccccc1)N1Cc2cccc(NCCCNc3c(NCCCCCCNC(=O)CN4CCN(CC(=O)O)CCN(CC(=O)O)CCN(CC(=O)O)CC4)c(=O)c3=O)c2C1)C(=O)NCc1c(F)cc(O)cc1F

Result:
["< 10 nM", "< 10 nM", "< 10 nM", "> 1000 nM", "< 10 nM", "< 10 nM", "100 to 1000 nM", "< 10 nM"]
